Measured growth inhibition, listed per entry for reference.
- Test: NCI Yeast Anticancer Drug Screen. Data for the rad50 strain (AID 155);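 note: 0% = growth of vehicle-only cultures of the same strain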
- Test Context: S. cerevisiae rad50 strain growth inhibition; at 50.0 µM; active compounds read high
The panel holds about 79,000 compounds, 15% with a hit somewhere; the sample as a whole holds those more often.

Compound	growth inhibition / %
O=P(c1ccccc1)(c1ccccc1)c1ccccc1.O=P(c1ccccc1)(c1ccccc1)c1ccccc1.O=S(=O)(O)O.[Fe]	-8.3
CCC1(CCC(C)C)C(=O)NC(=O)N(c2ccccc2)C1=O (stereo not given)	1.2
CCC1CN1P1(=O)OCC(C)(N)CO1 (stereo not given)	-9.45
NC(CP(=O)(O)O)C(=O)O (stereo not given)	0.4
c1cc(C2O[C@H]3CCCN3[C@@H]2c2ccncc2)ccn1 (stereo not given in full)	-30.6
CN1CCN[C@@H]2CCCC[C@@H]21	11.2
OC(CN1CC1)C(O)CN1CC1 (stereo not given)	-16.4
COc1cc2c(c3oc4cccc(O)c4c(=O)c13)[C@@H]1C=CO[C@@H]1O2	-11.6
O=S(c1ccc(Cl)cc1)c1ccc(Cl)cc1	1.55
COc1c2occc2c(CCl)c2ccc(=O)oc12	26.6

----------
Measured growth inhibition, listed per entry for reference.
- Test: NCI Yeast Anticancer Drug Screen. Data for the bub3 strain (AID 167)
- Test Context: S. cerevisiae bub3 mutant strain, at 50.0 µM, active compounds read high
The panel holds about 79,000 compounds, 15% with a hit somewhere; the sample as a whole holds those more often.

Compound	growth inhibition (%)
CC(=O)C(Sc1ccccc1[N+](=O)[O-])C(C)=O.[Co]	6.45
O=C(OC12CCN(CC1)CC2)c1ccccc1	8.15
CN(C)C(=O)Oc1ccc([N+](=O)[O-])cc1OC(=O)N(C)C	9.95
CC(C)CCCC(C)C1CCC2C3CC=C4CC([Se][As](C)C)CCC4(C)C3CCC12C (stereo not given)	0.6
CN1C2CCC1[C@@H](COC(=O)c1ccccc1)[C@@H](O)C2 (stereo not given in full)	-3.55
CC(C)CCON=O	-13.1
COS(=O)(=O)c1ccc(C)cc1	-7.7
O=C1OC[C@@H]2Cc3c([nH]c4ccccc34)[C@@H](c3cc(O)c(O)c(O)c3)N12	10.7
CCCCCCCCCCCCCCCC[As](CCCCCCCCCCCCCCCC)SC1OC(COC(C)=O)C(OC(C)=O)C(OC(C)=O)C1OC(C)=O (stereo not given)	1.5
CCNc1ccc([N+](=O)[O-])cc1[N+](=O)[O-]	-6.4
C/C=C1/CN2CCC1CC2C(O)c1ccnc2ccc(OCCO)cc12 (stereo not given)	-24.6
O=C(O)C(O)CO.[Pb] (stereo not given)	-15.7
Nc1ccc(CCc2ccc(S(=O)(=O)F)cc2)cc1	92.7
c1ccc(P2c3ccccc3Oc3ccccc32)cc1	32.6
CS(=O)(=O)C(Cl)Cl	6.3
c1ccc(CC[N+]23CC[N+](CCc4ccccc4)(CC2)C3)cc1	4.5
CC(=O)Cc1ccc(C)cc1	-44.5
CCCCOC(=O)c1ccccc1C(=O)O.[Mn]	-29.6
COc1ccc(CN2CCCN(Cc3ccc(OC)cc3)C2c2ccc(N(CCCl)CCCl)cc2)cc1	-15.3
c1ccc2c(c1)c1ccccc1c1n[se]nc21	7.55
C1NCC2CNCC1O2	7.9
CCN(CC)C(=O)CCNC(C)Cc1c[nH]c2ccccc12 (stereo not given)	8.85
C1C[N-]CC[N-]1.C1C[N-]CC[N-]1.[Zn]	99.4
OC[C@@H](O)[C@@H](O)CO	-5.55
COc1cc2c(cc1OC)[C@@H]1C(=O)c3ccc4c(c3O[C@@H]1CO2)C[C@H](C(C)C)O4	-33.6
COC12c3ccccc3-c3ccccc3C1[C@@H](C(=O)O)[C@H]2C(=O)O (stereo not given in full)	-24.4
C/C=C\CC1(C/C=C/C)C(=O)NC(=O)NC1=O	-8.9
CCOC(=O)C(Br)CBr (stereo not given)	-16.1
[Pd].c1ccc([PH+](CC[PH+](c2ccccc2)c2ccccc2)c2ccccc2)cc1.c1ccc([PH+](CC[PH+](c2ccccc2)c2ccccc2)c2ccccc2)cc1	15.7
CN(C)c1ccc(N=Nc2ccc([As](=O)(O)O)cc2)cc1	-5.15
ClCCCCBr	2.4
O=[P+](O)c1cccnc1	16.7
C=CCN1CN(c2ccccc2)C2(CCN(CCCC3(c4ccc(F)cc4)OCCO3)CC2)C1=O	0.7
Nc1ccc(S(=O)(=O)F)cc1	-35.3
CCCCN(CCCC)CC(O)c1cc(Cl)c(Cl)cc1C (stereo not given)	27.4
Cc1ccccc1/C(=C/c1ccc([N+](=O)[O-])cc1)C(=O)Nc1ccc(S(=O)(=O)F)cc1	96.5
CC(=O)CC(C)=O.CC(=O)CC(C)=O.CC(=O)CC(C)=O.[Tb]	-2.95
CCC[CH2][Sn]([CH2]CCC)([O]C(=O)CN)[O]C(=O)CN	19.1
OCC1CCCN2CCCCC12 (stereo not given)	-20.4
CC(=O)C1=C(O)C2C3c4c[nH]c5cccc(c45)CC3C(C)(C)N2C1=O (stereo not given)	15

Values compiled from PubChem BioAssay (NCI).
